Endpoint name: melting point

C1=NCc2cncn2-c2ccccc21
150 to 151 °C
COC(=O)c1cc(I)ccc1NS(C)(=O)=O
119 to 120 °C
CCOC(=O)c1ncn2c1CN(C)C(=O)c1c-2cccc1[N+](=O)[O-]
212 to 213 °C
CCOCc1cncc(-c2ccc3c(c2)nc(N)c2nc(COCC)n(CC(C)(C)O)c23)c1
156 °C
Cc1cn(C)c2c(OCc3ccccc3)cc3c(c12)[C@H](CO)CN3C(=O)OC(C)(C)C
138 to 140 °C
COc1cc(C(C)C)c2c(c1)S(=O)(=O)NC2=O
188 °C
Cc1ccccc1-c1nc2c3ccccc3ccn2c1N=Cc1ccc2ccccc2c1Br
250 to 252 °C
COCC(C)NC1=NS(=O)(=O)c2cc(Cl)cnc2N1 (stereo not given)
150 to 156 °C
CC(C)OC(=O)C(C(=O)Nc1nccs1)=C1SCS1
174 to 175 °C
N#Cc1cc(C(=O)NNC(=O)c2occc2-c2ccncc2)ccc1O
280 °C
